biological target: recombinant ATX (Homo sapiens, UniProt Q13822); assay: ATX assay; conditions: read-out: Ki, ATX; FS-3 substrate; affinity for free enzyme
readout-name: Ki (nM)
Return type: number; implicit unit nM.

Which Ki is reported with recombinant ATX (Homo sapiens, UniProt Q13822) for this entry: CCCCCCCCc1ccc(CC[C@@](N)(/C=C/P(=O)(O)O)CO)cc1 [(R)-ene, (R)-FTY720-vinylphosphonate] ?
920

Which Ki is reported with recombinant ATX (Homo sapiens, UniProt Q13822) for this entry: CCCCCCCCc1ccc(CC[C@](N)(/C=C/P(=O)(O)O)CO)cc1 [(S)-ene, (S)-FTY720-vinylphosphonate] ?
1000

###

biological target: S1P3 (Homo sapiens, UniProt Q99500); test: Ca2+ mobilization; type: cell-based
Sequence (Q99500 whole entry, species assumed): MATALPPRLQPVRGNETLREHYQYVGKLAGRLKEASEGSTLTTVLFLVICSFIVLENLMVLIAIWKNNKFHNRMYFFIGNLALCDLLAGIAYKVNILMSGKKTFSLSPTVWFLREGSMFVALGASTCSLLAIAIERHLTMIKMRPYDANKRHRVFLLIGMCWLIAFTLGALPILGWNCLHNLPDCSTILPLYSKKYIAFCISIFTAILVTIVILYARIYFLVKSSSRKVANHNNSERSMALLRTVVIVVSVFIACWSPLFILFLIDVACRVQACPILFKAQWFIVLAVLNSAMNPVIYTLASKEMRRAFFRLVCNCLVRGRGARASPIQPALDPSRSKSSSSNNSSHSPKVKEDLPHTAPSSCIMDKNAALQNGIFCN
readout-name: pEC50
Just the number, please; pEC50 means minus log10 of the concentration in mol/L.

What pEC50 value was documented for this molecule, CCCCCCCCCCCCC/C=C/[C@@H](O)[C@@H](N)COP(=O)(O)O [S1P, sphingosine 1-phosphate] ?
7.92

###

molecular target: S1P4 (Homo sapiens, UniProt O95977); test: Ca2+ mobilization; assay type: cell-based
Sequence (O95977 whole entry, species assumed): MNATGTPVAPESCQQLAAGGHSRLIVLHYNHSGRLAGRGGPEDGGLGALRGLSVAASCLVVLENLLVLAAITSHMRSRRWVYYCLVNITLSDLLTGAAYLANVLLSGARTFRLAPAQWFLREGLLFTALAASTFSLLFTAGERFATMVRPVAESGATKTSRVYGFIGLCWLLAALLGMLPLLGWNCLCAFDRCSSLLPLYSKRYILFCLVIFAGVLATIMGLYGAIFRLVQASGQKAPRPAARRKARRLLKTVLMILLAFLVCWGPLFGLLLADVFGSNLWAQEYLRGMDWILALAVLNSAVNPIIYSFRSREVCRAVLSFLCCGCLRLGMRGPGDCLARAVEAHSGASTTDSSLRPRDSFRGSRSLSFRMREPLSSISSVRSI
readout-name: pEC50
Just the number, please; pEC50 means minus log10 of the concentration in mol/L.

What pEC50 value was documented for this compound, CCCCCCCCCCCCC/C=C/[C@@H](O)[C@@H](N)COP(=O)(O)O [S1P, sphingosine 1-phosphate] ?
8.22

###

target: S1P4 (Homo sapiens); assay: Antagonism of S1P-induced Ca2+ mobilization in S1P4-expressing HTC4 cells; settings: read-out: Ki, S1P4; cotreated with 5 nM S1P; ± SD
readout-name: pKi
Just the number, please; pKi means minus log10 of the concentration in mol/L.

What pKi value was documented for this compound, CCCCCCCCc1ccc(CC[C@](N)(/C=C/P(=O)(O)O)CO)cc1 [(S)-ene, (S)-FTY720-vinylphosphonate] ?
5.92

###

target: S1P1 (Homo sapiens, UniProt P21453); assay: Ca2+ mobilization; assay type: cell-based; settings: Ca2+ mobilization, concentrations up to 10 μM
Sequence (P21453 whole entry, species assumed): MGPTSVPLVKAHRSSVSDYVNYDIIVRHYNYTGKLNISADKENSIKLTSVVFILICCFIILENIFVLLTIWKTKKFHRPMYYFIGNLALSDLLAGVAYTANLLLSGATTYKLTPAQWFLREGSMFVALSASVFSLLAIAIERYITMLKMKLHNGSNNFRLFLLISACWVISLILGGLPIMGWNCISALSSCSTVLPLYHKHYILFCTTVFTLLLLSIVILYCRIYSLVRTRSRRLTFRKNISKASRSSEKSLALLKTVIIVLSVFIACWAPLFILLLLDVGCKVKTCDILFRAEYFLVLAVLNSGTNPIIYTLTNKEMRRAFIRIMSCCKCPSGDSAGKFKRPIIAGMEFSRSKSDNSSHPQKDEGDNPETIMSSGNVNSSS
readout-name: S1P1 activation, agonist character (in words)

CCCCCCCCc1ccc(CC[C@@](N)(/C=C/P(=O)(O)O)CO)cc1 [(R)-ene, (R)-FTY720-vinylphosphonate]
full agonists
CCCCCCCCc1ccc(CC[C@](N)(CO)CCP(=O)(O)O)cc1 [(R)-FTY720-phosphonate]
full agonists

###

target: S1P4 (Homo sapiens, UniProt O95977); test: Ca2+ mobilization; format: cell-based; conditions: read-out: EC50, S1P4; Ca2+ mobilization, HTC4 cells; ± SD
readout-name: EC50

What EC50 value was documented for this compound, CCCCCCCCc1ccc(CC[C@](N)(CO)COP(=O)(O)O)cc1 [FTY720-P, (S)-FTY720-phosphate] ?
> 0.5 µM

###

What pEC50 was measured for each of the following?
target: S1P3 (Homo sapiens); assay: Ca2+ mobilization; assay type: cell-based; conditions: read-out: EC50, S1P3; Ca2+ mobilization, HTC4 cells; ± SD
pEC50: −log10 of the molar value.

What pEC50 value was documented for this compound, CCCCCCCCc1ccc(CC[C@@](N)(/C=C/P(=O)(O)O)CO)cc1 [(R)-ene, (R)-FTY720-vinylphosphonate] ?
< 6.30

What pEC50 value was documented for this compound, CCCCCCCCc1ccc(CC[C@](N)(CO)CCP(=O)(O)O)cc1 [(R)-FTY720-phosphonate] ?
< 6.52

###

target: S1P1 (Homo sapiens); assay: Antagonism of S1P-induced Ca2+ mobilization in S1P1-expressing HTC4 cells; settings: read-out: Ki, S1P1; cotreated with 3 nM S1P; ± SD
readout-name: Ki (nM)
Return type: number; implicit unit nM.

What Ki value was documented for this molecule, CCCCCCCCc1ccc(CC[C@](N)(/C=C/P(=O)(O)O)CO)cc1 [(S)-ene, (S)-FTY720-vinylphosphonate] ?
384
